target or test system: hCRTH2 (Homo sapiens)
Construct: expressed in transfected cells; host or cells: HEK (human embryonic kidney) cells expressing hCRTH2; membrane preparation
Sequence (Q9Y5Y4 whole entry): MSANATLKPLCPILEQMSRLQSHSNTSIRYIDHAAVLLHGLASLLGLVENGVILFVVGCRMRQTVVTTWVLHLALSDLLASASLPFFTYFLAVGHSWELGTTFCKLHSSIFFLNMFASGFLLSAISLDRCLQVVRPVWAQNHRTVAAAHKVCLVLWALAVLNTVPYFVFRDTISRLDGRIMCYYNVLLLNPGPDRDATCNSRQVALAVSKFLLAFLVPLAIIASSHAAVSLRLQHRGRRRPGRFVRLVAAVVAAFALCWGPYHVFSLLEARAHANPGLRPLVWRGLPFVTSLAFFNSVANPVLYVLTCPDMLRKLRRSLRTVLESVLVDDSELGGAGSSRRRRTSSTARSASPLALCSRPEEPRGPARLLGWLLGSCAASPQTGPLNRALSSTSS
experimental protocol: Radioligand binding assay ([3H]PGD2 competition, HEK-hCRTH2 membranes)
run parameters: [3H]PGD2 competition, Table B
pKi: −log10 of the molar value.
measured parameter: pKi

INSERT INTO measurements (compound, measured_parameter, data_value) VALUES
  ('O=C(O)CCCCc1nc2cc(C(=O)NC3CCCOc4ccccc43)ccc2nc1-c1ccc(Cl)cc1 (stereo not drawn) [compound 561]', 'pKi', '8.70 to 10.00'),
  ('CC(CCCc1nc2cc(C(=O)N3CCN(c4ccccc4)CC3)ccc2nc1-c1ccccc1)C(=O)O (stereo not drawn)', 'pKi', '7.70 to 8.68'),
  ('O=C(O)CCCCc1nc2cc(C(=O)N3CCn4cc(C(F)(F)F)nc4C3)ccc2nc1-c1ccc(Cl)cc1', 'pKi', '6.70 to 7.70'),
  ('N#Cc1cccnc1N1CCN(C(=O)c2ccc3nc(-c4ccccc4)c(CCCCC(=O)O)nc3c2)CC1', 'pKi', '7.70 to 8.68'),
  ('O=C(O)CCCCc1nc2cc(C(=O)N[C@@H]3CCOc4ccccc43)ccc2nc1-c1ccccc1', 'pKi', '8.70 to 10.00'),
  ('O=C(O)CCCCc1nc2cc(C(=O)N3CCC4(CC3)NC(=O)Cc3ccccc34)ccc2nc1-c1ccc(Cl)cc1', 'pKi', '8.70 to 10.00'),
  ('O=C(O)Cc1cccc(CCCc2nc3cc(C(=O)NCc4ccc(Cl)cc4)ccc3nc2-c2ccc(Cl)cc2)c1', 'pKi', '6.70 to 7.70'),
  ('O=C(O)CCCCc1nc2cc(C(=O)N3CCc4ccccc4C3)ccc2nc1-c1ccc(Cl)cc1', 'pKi', '7.70 to 8.68'),
  ('O=C(O)CCCCc1nc2cc(C(=O)N3CCN(c4ccccc4)C(=O)C3)ccc2nc1-c1ccc(Cl)cc1', 'pKi', '7.70 to 8.68'),
  ('CC1(C)CC(NC(=O)c2ccc3nc(-c4ccc(Cl)cc4)c(CCCCC(=O)O)nc3c2)c2ccccc2O1 (stereo not drawn) [compound 582]', 'pKi', '8.70 to 10.00'),
  ('Cc1nonc1N1CCN(C(=O)c2ccc3nc(-c4ccc(Cl)cc4)c(CCCCC(=O)O)nc3c2)CC1', 'pKi', '7.70 to 8.68'),
  ('O=C(O)CCCCc1nc2cc(C(=O)N[C@@H]3CCSc4ccccc43)ccc2nc1-c1ccc(Cl)cc1', 'pKi', '8.70 to 10.00'),
  ('C[C@@H](NC(=O)c1ccc2nc(-c3ccc(Cl)cc3)c(CC3CCC(C(=O)O)C3)nc2c1)c1ccccc1 (stereo partly drawn)', 'pKi', '7.70 to 8.68'),
  ('CN(Cc1ccc(F)cc1)C(=O)c1ccc2nc(-c3ccc(F)cc3)c(CCCc3cccc(CC(=O)O)c3)nc2c1', 'pKi', '6.70 to 7.70'),
  ('O=C(O)CCCCc1nc2cc(C(=O)N3CCN(Cc4ccncc4)CC3)ccc2nc1-c1ccc(Cl)cc1', 'pKi', '6.70 to 7.70');

###

target or test system: hCRTH2 (Homo sapiens)
Construct: expressed in transfected cells; host or cells: HEK (human embryonic kidney) cells expressing hCRTH2; membrane preparation
experimental protocol: Radioligand binding assay ([3H]PGD2 competition, HEK-hCRTH2 membranes)
run parameters: [3H]PGD2 binding, rated A-E (Table A)
pKi: −log10 of the molar value.
Measured pKi by item
measured parameter: pKi

INSERT INTO measurements (compound, measured_parameter, data_value) VALUES
  ('O=C(O)CCCCc1nc2cc(C(=O)NCc3ccccc3)ccc2nc1-c1ccc(F)cc1', 'pKi', '8.70 to 10.00'),
  ('O=C(O)CCCCc1nc2cc(C(=O)N3CCCC3)ccc2nc1-c1ccccc1 [15BE]', 'pKi', '7.70 to 8.68'),
  ('O=C(O)CCCCc1nc2cc(C(=O)NCc3ccccc3F)ccc2nc1-c1ccccc1 [15AB]', 'pKi', '8.70 to 10.00'),
  ('CN1CC2(CCN(C(=O)c3ccc4nc(-c5ccccc5)c(CCCCC(=O)O)nc4c3)CC2)c2ccccc21', 'pKi', '7.70 to 8.68'),
  ('O=C(O)CCCCc1nc2cc(C(=O)N3CCC[C@@H](c4ccccc4)C3)ccc2nc1-c1ccccc1', 'pKi', '7.70 to 8.68'),
  ('O=C(O)CCCCc1nc2cc(C(=O)NCc3ccc(Cl)cc3)ccc2nc1-c1ccc(Cl)cc1', 'pKi', '8.70 to 10.00');
